I'd appreciate it if you could supply Normalized Z score 1 values for the items below.
biological target: SpCas9 (Streptococcus pyogenes serotype M1); assay: Strand displacement assay (SDA) / cumulative activity assay (CAA), SpCas9 primary screen; format: biochemical; settings: Primary Screen (150 min); replicate 1
In your answer, state the number alone without any accompanying words.

Entry O=C(NCC1CCCO1)c1ccc(Oc2ccnc(-c3ccc(F)cc3)n2)cc1 (stereo not drawn) : reported Normalized Z score 1 = ?
0.33

Returns the measured Normalized Z score 1 for the input compound. Input: "CCCN(CCC)C1=CC(=O)C(C)=C(C)C1=O"
0.32

Item Cc1ccc(C(C)NC(=O)c2cccc(Oc3cc(-c4ccccc4)ncn3)c2)cc1 (stereo not drawn) has what recorded Normalized Z score 1?
0.28

Which Normalized Z score 1 value belongs to CCC(C)NC(=O)c1cccc(Oc2cc(-c3ccccc3)ncn2)c1 (stereo not drawn) ?
0.43

What value of measured Normalized Z score 1 is listed for "Cn1cccc1/C=C\C(=O)O" ?
0.27

Query (compound): COc1ccc(-c2cc3c(C)nc(N)nc3n(C3CCC(OCCO)CC3)c2=O)cn1 (stereo not drawn) ; field requested: Normalized Z score 1
0.45

Which Normalized Z score 1 value is on record for "Cc1sc2nc3n(c(=O)c2c1-c1ccccc1)CCC3" ?
0.04

Request the reported Normalized Z score 1 associated with "COc1ccc(CNC(=O)c2ccc(Oc3ccnc(-c4cccc(F)c4)n3)cc2)c(OC)c1"
0.38

Returns the measured Normalized Z score 1 for the input compound. Input: "O=C(Nc1nnc(C2CC2)s1)c1ccc2ncsc2c1"
0.07

* * *

biological target: SpCas9 (Streptococcus pyogenes serotype M1, UniProt Q99ZW2); test: eGFP disruption assay, SpCas9, U2OS.eGFP.PEST cells; assay type: cell-based; settings: replicate 2, raw readout
Sequence (Q99ZW2 whole entry): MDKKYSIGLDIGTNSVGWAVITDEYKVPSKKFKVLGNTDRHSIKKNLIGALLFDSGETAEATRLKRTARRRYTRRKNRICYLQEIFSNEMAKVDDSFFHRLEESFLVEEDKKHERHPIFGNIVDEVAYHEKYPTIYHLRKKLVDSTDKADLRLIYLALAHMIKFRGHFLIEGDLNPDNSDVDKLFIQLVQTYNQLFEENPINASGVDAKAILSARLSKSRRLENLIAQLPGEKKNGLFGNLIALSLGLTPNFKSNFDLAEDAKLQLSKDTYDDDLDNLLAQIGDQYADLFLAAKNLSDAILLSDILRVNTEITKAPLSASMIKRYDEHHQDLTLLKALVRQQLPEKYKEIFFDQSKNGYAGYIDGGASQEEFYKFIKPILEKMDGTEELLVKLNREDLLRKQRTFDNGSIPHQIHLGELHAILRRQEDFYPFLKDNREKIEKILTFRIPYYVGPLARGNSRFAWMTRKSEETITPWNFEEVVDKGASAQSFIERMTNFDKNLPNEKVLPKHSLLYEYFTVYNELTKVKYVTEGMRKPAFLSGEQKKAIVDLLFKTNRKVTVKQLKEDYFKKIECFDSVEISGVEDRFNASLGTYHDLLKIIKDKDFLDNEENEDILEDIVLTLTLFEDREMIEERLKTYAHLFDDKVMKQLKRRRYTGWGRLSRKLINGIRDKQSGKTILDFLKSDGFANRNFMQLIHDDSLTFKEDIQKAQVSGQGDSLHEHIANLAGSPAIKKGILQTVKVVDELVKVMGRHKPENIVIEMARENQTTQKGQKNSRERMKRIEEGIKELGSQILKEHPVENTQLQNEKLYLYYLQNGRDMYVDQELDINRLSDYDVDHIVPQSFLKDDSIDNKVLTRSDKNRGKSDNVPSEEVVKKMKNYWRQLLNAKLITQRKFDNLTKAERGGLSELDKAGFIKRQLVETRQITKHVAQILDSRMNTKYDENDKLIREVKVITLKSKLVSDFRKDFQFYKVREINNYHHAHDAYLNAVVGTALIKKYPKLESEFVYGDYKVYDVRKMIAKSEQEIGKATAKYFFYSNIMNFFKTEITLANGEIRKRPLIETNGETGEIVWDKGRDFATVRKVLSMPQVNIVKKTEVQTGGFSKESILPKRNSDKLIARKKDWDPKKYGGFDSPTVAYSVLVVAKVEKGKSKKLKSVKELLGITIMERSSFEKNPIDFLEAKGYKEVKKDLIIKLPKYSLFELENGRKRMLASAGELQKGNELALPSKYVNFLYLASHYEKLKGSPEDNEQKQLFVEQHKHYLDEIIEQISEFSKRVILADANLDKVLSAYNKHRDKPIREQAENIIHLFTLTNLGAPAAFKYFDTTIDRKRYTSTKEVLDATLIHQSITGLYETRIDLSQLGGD
Could you please report measured SpCas9 eGFP disruption Rep2 for the items listed next?
Answer using only a numeral; do not append any unit.

Query SpCas9 eGFP disruption Rep2 on SpCas9 (Streptococcus pyogenes serotype M1, UniProt Q99ZW2) for "CN(C)S(=O)(=O)Nc1ccc(N2CCC(CCN3CCOCC3)CC2)c(C(=O)O)c1"
56.357

Write down the reported SpCas9 eGFP disruption Rep2 of "O=C(Nc1nc(-c2ccccc2)c(C(=O)c2ccccc2)s1)c1ccc2c(c1)OCCO2" , test system: SpCas9 (Streptococcus pyogenes serotype M1, UniProt Q99ZW2).
77.667

Provide value of SpCas9 eGFP disruption Rep2 for this record tested with SpCas9 (Streptococcus pyogenes serotype M1, UniProt Q99ZW2): "O=C(NC1CCCC1)c1cccc(Oc2cc(-c3ccccc3)ncn2)c1"
76.396

Provide value of SpCas9 eGFP disruption Rep2 for this record tested with SpCas9 (Streptococcus pyogenes serotype M1, UniProt Q99ZW2): "Fc1ccc(OCc2nn3c(-c4ccccn4)nnc3s2)cc1"
52.257

Under SpCas9 (Streptococcus pyogenes serotype M1, UniProt Q99ZW2): SpCas9 eGFP disruption Rep2 value of CCC(C)NC(=O)c1cccc(Oc2cc(-c3ccccc3)ncn2)c1 (centres unmarked) ?
69.294

Provide value of SpCas9 eGFP disruption Rep2 for this record tested with SpCas9 (Streptococcus pyogenes serotype M1, UniProt Q99ZW2): "NC(=O)c1sc(=S)n2c1[nH]c(=O)c1cc(Cl)ccc12"
59.801

Can you look up SpCas9 eGFP disruption Rep2 on SpCas9 (Streptococcus pyogenes serotype M1, UniProt Q99ZW2) for "Cc1nn(-c2ccccc2)c(C)c1CCc1nn2c(-c3cnccn3)nnc2s1" ?
57.281

Lab note: need SpCas9 eGFP disruption Rep2 with SpCas9 (Streptococcus pyogenes serotype M1, UniProt Q99ZW2) for entry "O=C(O)c1cc(NS(=O)(=O)c2cc(F)ccc2F)cnc1N1CCC(N2CCCCC2)CC1" , please look it up.
62.171

* * *

target: SaCas9 (Staphylococcus aureus); test: eGFP secondary assay, SaCas9; format: cell-based; details: average of two replicates, Zscore>3 selected as hit
Lab note - cut at 5 for Z score Avg Z: true if strictly below, false if not.

Report whether reported Z score Avg Z is lower than 5 (strictly) for CCCN(CCC)C(=O)C1CCCN(c2ccc(-c3ccccc3)nn2)C1 (stereo not drawn)
false

I wonder whether COc1ccc(N2C(=O)c3cc4ccccc4n3CC2(C)C(=O)NC2CCCCC2)c(OC)c1 (stereo not drawn) has Z score Avg Z below 5. Can you tell?
true

Hello, I'm reviewing records and need to know if Z score Avg Z of COc1cccc(N2C(=O)c3cc4ccccc4n3CC2(C)C(=O)NC2CCCCC2)c1 (stereo not drawn) is below 5. Could you check?
false

Dear colleague, could you confirm whether Z score Avg Z of CC1(C(=O)NC2CCCCC2)Cn2c(cc3ccccc32)C(=O)N1Cc1ccccc1 (stereo not drawn) falls below 5? Thanks.
false

Hello, is Z score Avg Z of the following compound strictly smaller than 5? "NC(=O)c1sc(=S)n(Cc2ccccc2)c1N"
false

Is Z score Avg Z strictly under 5 for the entry "CC(C)Cc1nnc2sc(-c3c[nH]c4ccccc34)nn12" ?
true

Identify whether the compound "C=CC1=C(C(=O)O)N2C(=O)[C@@H](NC(=O)C(=NOCC(=O)O)c3csc(N)n3)[C@H]2SC1.O" records Z score Avg Z below 5.
true

Determine whether this compound shows Z score Avg Z lower than 5 (ties excluded): "Cc1cccc(NC(=O)c2cc3c(=O)n4ccccc4nc3s2)c1"
true

* * *

Biological target: SaCas9 (Staphylococcus aureus, UniProt J7RUA5)
Sequence (J7RUA5 1-1053): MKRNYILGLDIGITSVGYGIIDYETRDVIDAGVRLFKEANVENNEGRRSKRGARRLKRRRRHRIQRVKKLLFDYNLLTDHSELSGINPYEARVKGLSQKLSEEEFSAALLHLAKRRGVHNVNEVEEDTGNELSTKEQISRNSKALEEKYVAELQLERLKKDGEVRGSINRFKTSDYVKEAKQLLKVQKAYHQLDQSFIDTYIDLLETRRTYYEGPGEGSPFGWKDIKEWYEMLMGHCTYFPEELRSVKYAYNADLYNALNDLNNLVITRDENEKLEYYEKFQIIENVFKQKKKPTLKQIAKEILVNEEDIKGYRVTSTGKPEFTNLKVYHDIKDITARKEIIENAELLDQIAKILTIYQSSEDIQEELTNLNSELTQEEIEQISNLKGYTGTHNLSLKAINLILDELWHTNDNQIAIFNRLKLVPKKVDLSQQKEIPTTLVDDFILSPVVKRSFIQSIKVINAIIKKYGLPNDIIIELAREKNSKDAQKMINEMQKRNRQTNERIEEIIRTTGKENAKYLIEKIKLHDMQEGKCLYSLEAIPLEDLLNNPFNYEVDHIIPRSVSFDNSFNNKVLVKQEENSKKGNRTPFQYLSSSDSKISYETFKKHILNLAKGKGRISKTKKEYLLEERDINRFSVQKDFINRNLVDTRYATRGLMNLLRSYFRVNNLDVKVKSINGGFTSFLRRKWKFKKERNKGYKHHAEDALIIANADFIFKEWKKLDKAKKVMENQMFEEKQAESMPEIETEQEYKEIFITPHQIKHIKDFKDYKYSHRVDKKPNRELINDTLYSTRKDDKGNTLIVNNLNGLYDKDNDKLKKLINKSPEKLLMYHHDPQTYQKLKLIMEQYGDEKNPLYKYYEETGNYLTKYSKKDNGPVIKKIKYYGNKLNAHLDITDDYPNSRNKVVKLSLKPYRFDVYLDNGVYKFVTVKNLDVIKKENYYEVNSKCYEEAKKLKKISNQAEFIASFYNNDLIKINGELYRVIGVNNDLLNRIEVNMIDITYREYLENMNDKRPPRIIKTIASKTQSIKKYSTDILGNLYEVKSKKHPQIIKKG
Assay: Strand displacement assay, SaCas9 primary screen
Assay type: biochemical
Conditions: SaCas9 primary screen, weaker potential hits, replicate 2
QUANTITY_NAME: Normalized Zscore Rep 2
Number, no unit, nothing else.

If you can, please state the reported Normalized Zscore Rep 2 value of "CCN(Cc1ccccc1)c1ccc(NS(=O)(=O)CC)cc1C(=O)O" .
0.1791

Quick one: Normalized Zscore Rep 2 of "O=c1oc2cc(OCc3nnn[nH]3)c(Cl)cc2c2c1CCC2" ?
0.4064

Would you kindly share the measured Normalized Zscore Rep 2 for "COc1ccc(-c2[nH]nc3nc(-c4ccc(O)c(O)c4)cc(C(=O)O)c23)cc1" ?
0.4043

Recorded Normalized Zscore Rep 2 for "CCCCN(CC)c1ncc(NS(=O)(=O)CC)cc1C(=O)O" , please?
0.186

Consider the compound "NC(=O)c1sc(=S)n(Cc2ccccc2)c1N" and give its measured Normalized Zscore Rep 2.
0.143

Sample O=C(O)c1cc(NS(=O)(=O)N2CCOCC2)ccc1N1CCCC(CN2CCCC2)C1 (stereo not drawn) — what was its Normalized Zscore Rep 2?
0.1681

I am curious: what Normalized Zscore Rep 2 value has been reported for "Cc1nnc(NC(=O)CSc2ccc3nnc(-c4cccc(F)c4)n3n2)s1" ?
0.3107

Give its Normalized Zscore Rep 2 value. Item: "CN(C)S(=O)(=O)Nc1ccc(N2CCC(CCN3CCOCC3)CC2)c(C(=O)O)c1"
0.229

Using the record for CC1(C(=O)NC2CCCCC2)Cn2c(cc3ccccc32)C(=O)N1c1ccc2c(c1)OCCO2 (stereo not drawn) , report its Normalized Zscore Rep 2.
0.1597

Data request, read-out Normalized Zscore Rep 2, for "Brc1ccc(OCc2nn3c(-c4ccccn4)nnc3s2)cc1"
0.3776

Quick check: Normalized Zscore Rep 2 of "CCOc1ccc(NC(=O)c2oc3cc(C)ccc3c2C)c2cccnc12" ?
0.3581

Dear colleague, I am looking for the recorded Normalized Zscore Rep 2 of the following compound: "NS(=O)(=O)c1ccc(CCNC(=O)C2=Cc3sc4c(c3CS2)CCCC4)cc1"
0.2871

Give the measured Normalized Zscore Rep 2 of "Cc1occc1-c1nnc2sc(COc3ccc(Br)cc3)nn12" .
0.2635

What measured Normalized Zscore Rep 2 goes with "Cc1ccc(OCc2nn3c(-c4ccoc4C)nnc3s2)cc1C" ?
0.1627

Sample "Cc1c(NC(=O)C2=Cc3sc4c(c3CS2)CCCC4)c(=O)n(-c2ccccc2)n1C" — what was its Normalized Zscore Rep 2?
0.262

// returns reported Normalized Zscore Rep 2 for input "O=C(CSc1ccc2ccccc2c1)NCCc1ccc(O)c(O)c1"
0.3562

# input compound: "CCS(=O)(=O)Nc1cnc(N(CC(C)C)CC(C)C)c(C(=O)O)c1" ; wanted: its Normalized Zscore Rep 2
0.3121

Any idea what its Normalized Zscore Rep 2 is? The compound is "c1ccc(-c2nnc3sc(-c4ccncc4)nn23)nc1"
0.2295
